- System: E. coli TESEC Mtb DapB
- test-name: growth (OD600 after 10 h); higher = more growth (less inhibition)
- run-parameters: arabinose induction (level): Low; compound 0.1 mM; raw OD600 reference: median of DMSO wells 0.227, cell-free background 0.041
Please mark 1 if the recorded growth is equal to or greater than 0.2, and 0 if it falls below.

Dear colleague, could you confirm whether "Oc1cc(Cl)ccc1Oc1ccc(Cl)cc1Cl" has growth at or above 0.2?
0

Dear colleague, could you confirm whether C[N+](C)(C)CCCCCCCCCC[N+](C)(C)C [Decamethonium bromide] has growth at or above 0.2?
1

---

- Test system: E. coli TESEC Mtb Alr
- test-name: growth (OD600 after 10 h); higher = more growth (less inhibition)
- run-parameters: arabinose 10000000 nM; compound 0.1 mM; raw OD600 reference: median of DMSO wells […], cell-free background 0.052
Where a name gives a salt, the structure may show the parent alone.
Please mark 1 (yes) if the recorded growth is equal to or greater than 0.3, and 0 (no) if it falls below.

Below, 6 compounds whose answers are already recorded.
CC[C@@H](CO)NC(=O)[C@@H]1C=C2c3cccc4[nH]cc(c34)C[C@H]2N(C)C1 [Methylergometrine maleate]
1 (yes)
CN1[C@@H]2CC[C@H]1C[C@@H](OC1c3ccccc3CCc3ccccc31)C2 [Deptropine citrate]
0 (no)
Cc1cc(C(C#N)c2ccc(Cl)cc2)c(Cl)cc1NC(=O)c1cc(I)cc(I)c1O (configuration not stated)
0 (no)
Oc1ccc2c3c1O[C@H]1[C@@H](O)CC[C@@]4(O)[C@@H](C2)N(CC2CCC2)CC[C@]314 [Nalbuphine hydrochloride]
1 (yes)
CC(=O)OCC(=O)[C@H]1CC[C@H]2[C@@H]3CC[C@H]4C[C@H](O)CC[C@]4(C)[C@H]3C(=O)C[C@]12C [Alfadolone acetate]
0 (no)
CCCN1C[C@H](CSC)C[C@@H]2c3cccc4[nH]cc(c34)C[C@H]21 [Pergolide mesylate]
1 (yes)

Would you kindly look at the next entry?
Dear colleague, could you confirm whether C[C@]12CC[C@@H](O)C[C@H]1CC[C@@H]1[C@@H]2CC[C@]2(C)C(=O)CC[C@@H]12 [3-alpha-Hydroxy-5-beta-androstan-17-one] has growth at or above 0.3?
0 (no)
